test system: S. mutans; assay: microbe, parasite or virus in culture; assay type: cell-based, Streptococcus mutans; settings: Streptococcus mutans; Table 3; >300 = no inhibition up to 300 μM; NI = no inhibition up to 400 μM; read-out: Growth Inhibition MIC50
Known MIC50 of a selection of molecules
METRIC: MIC50

COMPOUND SMILES: O=c1c(O)c(-c2cc(O)c(O)cc2O)oc2ccccc12
EXPERIMENTAL VALUE: 63.1 µM

COMPOUND SMILES: COc1cc(-c2[o+]c3cc(O)cc(O)c3cc2O)cc(O)c1O
EXPERIMENTAL VALUE: 274 µM

COMPOUND SMILES: O=C(/C=C/c1ccc(O)c(O)c1)c1ccccc1O
EXPERIMENTAL VALUE: > 300 µM

COMPOUND SMILES: O=C(/C=C/c1ccc(O)cc1O)c1ccccc1O
EXPERIMENTAL VALUE: 327 µM

COMPOUND SMILES: O=C1/C(=C/c2cc(O)c(O)cc2O)Oc2ccccc21
EXPERIMENTAL VALUE: 157 µM

----------
tested on: S. mutans biofilm; assay: S. mutans biofilm formation and inhibition assay (96-well plates, crystal violet); format: cell-based, Streptococcus mutans; conditions: Table 6, chalcones; read-out: S. mutans Biofilm IC50
pIC50: −log10 of the molar value.

COMPOUND SMILES: O=C(/C=C/c1cccc(O)c1)c1ccccc1O
ASSAY TARGET: S. mutans biofilm
pIC50: 4.19

----------
molecular target: GtfB catalytic domain (Streptococcus mutans serotype c (strain ATCC 700610 / UA159)); test: OctetRed96 binding kinetics, GtfB; conditions: 1:1 binding model
Sequence (P08987 268-1074 limits assumed): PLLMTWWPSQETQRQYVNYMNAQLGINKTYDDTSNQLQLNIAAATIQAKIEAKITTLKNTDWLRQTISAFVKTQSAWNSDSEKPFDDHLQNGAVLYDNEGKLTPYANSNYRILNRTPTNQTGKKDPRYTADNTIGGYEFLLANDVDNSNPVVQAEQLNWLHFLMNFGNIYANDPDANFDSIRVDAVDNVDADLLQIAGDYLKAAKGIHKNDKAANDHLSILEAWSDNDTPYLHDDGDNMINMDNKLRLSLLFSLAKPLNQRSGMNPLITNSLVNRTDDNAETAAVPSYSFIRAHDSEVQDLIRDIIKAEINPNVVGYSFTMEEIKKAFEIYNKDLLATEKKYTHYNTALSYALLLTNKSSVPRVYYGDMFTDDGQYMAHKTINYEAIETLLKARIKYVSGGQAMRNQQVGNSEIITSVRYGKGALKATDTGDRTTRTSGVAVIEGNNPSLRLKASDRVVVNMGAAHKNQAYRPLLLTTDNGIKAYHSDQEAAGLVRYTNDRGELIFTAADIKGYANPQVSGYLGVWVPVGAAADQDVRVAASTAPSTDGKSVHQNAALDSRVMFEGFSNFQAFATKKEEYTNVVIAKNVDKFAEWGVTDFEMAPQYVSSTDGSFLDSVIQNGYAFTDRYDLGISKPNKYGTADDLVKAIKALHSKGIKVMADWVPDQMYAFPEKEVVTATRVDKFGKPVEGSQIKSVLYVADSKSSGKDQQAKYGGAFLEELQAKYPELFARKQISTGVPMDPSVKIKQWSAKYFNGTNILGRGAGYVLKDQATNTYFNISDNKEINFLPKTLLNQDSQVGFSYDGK

COMPOUND: NC(=O)c1ccccc1NC(=O)c1cc2cc([N+](=O)[O-])ccc2s1
Kd [µM]: 3.7

COMPOUND: O=C(Nc1ccccc1)c1cc2cc([N+](=O)[O-])ccc2s1
Kd [µM]: 68

COMPOUND: Oc1cc(O)cc(/C=C/c2ccc(O)c(O)c2)c1
Kd [µM]: 14.6

COMPOUND: Oc1ccc(/C=C/c2cc(O)cc(O)c2)cc1 [Resveratrol, reference compound]
Kd [µM]: 144

----------
Known IC50 of a selection of molecules
Test system: S. mutans biofilm
Test: S. mutans biofilm formation and inhibition assay (96-well plates, crystal violet)
Format: cell-based, Streptococcus mutans
Conditions: Streptococcus mutans, Table 2; read-out: Biofilm Inhibition IC50
Procedure: Biofilm assays using 96-well flat-bottom polystyrene microtiter plates were performed to evaluate S. mutans biofilm formation at various conditions as described (Liu et al. (2011) Antimicrobial Agents and Chemotherapy 55, 2679; Zhang et al. (2015) International Journal of Antimicrobial Agents 46, 174), the disclosures of which are incorporated herein by reference in their entirety). […] Compounds that inhibited biofilm formation at minimum concentration (MBIC) were determined by serial dilutions. […]

MOLECULE: CC(C)(C)OC(=O)NCc1ccccc1NC(=O)c1ccc2ccccc2c1
ASSAY TARGET: S. mutans biofilm
MEASUREMENT UNIT: µM
IC50: 56.8
--
MOLECULE: NC(=O)c1ccccc1NC(=O)c1cc2cc([N+](=O)[O-])ccc2s1
ASSAY TARGET: S. mutans biofilm
MEASUREMENT UNIT: µM
IC50: 16.7
--
MOLECULE: O=C(Nc1ccccc1C(=O)O)c1cc2cc([N+](=O)[O-])ccc2s1
ASSAY TARGET: S. mutans biofilm
MEASUREMENT UNIT: µM
IC50: 89.3
--
MOLECULE: NCc1ccccc1NC(=O)c1cnc2ccccc2c1
ASSAY TARGET: S. mutans biofilm
MEASUREMENT UNIT: µM
IC50: 136
--
MOLECULE: NCc1ccccc1NC(=O)c1cccc2ccccc12
ASSAY TARGET: S. mutans biofilm
MEASUREMENT UNIT: µM
IC50: 93.3
--
MOLECULE: NC(=O)c1cccc(NC(=O)c2cnc3ccccc3c2)c1
ASSAY TARGET: S. mutans biofilm
MEASUREMENT UNIT: µM
IC50: 8.6
--
MOLECULE: COc1ccc2[nH]c(C(=O)Nc3ccccc3C(N)=O)cc2c1
ASSAY TARGET: S. mutans biofilm
MEASUREMENT UNIT: µM
IC50: 68.8
--
MOLECULE: NC(=O)c1ccccc1C(=O)Nc1cnc2ccccc2c1
ASSAY TARGET: S. mutans biofilm
MEASUREMENT UNIT: µM
IC50: 102
--
MOLECULE: O=C(O)c1ccc(NC(=O)c2cc3ccccc3s2)cc1 [SN-I-272VH]
ASSAY TARGET: S. mutans biofilm
MEASUREMENT UNIT: µM
IC50: 180
--
MOLECULE: NC(=O)c1cccc(NC(=O)c2ccc(-c3ccccc3)cc2)c1
ASSAY TARGET: S. mutans biofilm
MEASUREMENT UNIT: µM
IC50: 79.9
--
MOLECULE: COC(=O)c1ccccc1NC(=O)c1cc2ccccc2s1
ASSAY TARGET: S. mutans biofilm
MEASUREMENT UNIT: µM
IC50: 74.9
--
MOLECULE: COC(=O)c1ccccc1NC(=O)c1cc2cc([N+](=O)[O-])ccc2o1
ASSAY TARGET: S. mutans biofilm
MEASUREMENT UNIT: µM
IC50: 71.4
--
MOLECULE: NC(=O)c1cccc(NC(=O)c2cc3cc([N+](=O)[O-])ccc3s2)c1
ASSAY TARGET: S. mutans biofilm
MEASUREMENT UNIT: µM
IC50: 42.3
--
MOLECULE: COC(=O)c1ccc(NC(=O)c2cc3cc([N+](=O)[O-])ccc3s2)cc1
ASSAY TARGET: S. mutans biofilm
MEASUREMENT UNIT: µM
IC50: 9.6
--
MOLECULE: NCc1cccc(NC(=O)c2cc3ccccc3s2)c1
ASSAY TARGET: S. mutans biofilm
MEASUREMENT UNIT: µM
IC50: 209
--
MOLECULE: NC(=O)c1ccccc1OC(=O)c1cc2cc([N+](=O)[O-])ccc2s1
ASSAY TARGET: S. mutans biofilm
MEASUREMENT UNIT: µM
IC50: 50.4
--
MOLECULE: COc1ccc2[nH]c(C(=O)Nc3cccc(C(N)=O)c3)cc2c1
ASSAY TARGET: S. mutans biofilm
MEASUREMENT UNIT: µM
IC50: 56.6
--
MOLECULE: O=C(Nc1ccccc1Br)c1cc2cc([N+](=O)[O-])ccc2s1
ASSAY TARGET: S. mutans biofilm
MEASUREMENT UNIT: µM
IC50: 122
--
MOLECULE: Cc1ccc(S(=O)(=O)Nc2cccc(NC(=O)c3cc4cc([N+](=O)[O-])ccc4s3)c2)cc1
ASSAY TARGET: S. mutans biofilm
MEASUREMENT UNIT: µM
IC50: 63.7
--
MOLECULE: NC(=O)c1cccc(NC(=O)c2cc3cc([N+](=O)[O-])ccc3o2)c1
ASSAY TARGET: S. mutans biofilm
MEASUREMENT UNIT: µM
IC50: 38.8
--
MOLECULE: COC(=O)c1ccccc1NC(=O)c1ccc2ccccc2n1
ASSAY TARGET: S. mutans biofilm
MEASUREMENT UNIT: µM
IC50: 89.5
--
MOLECULE: COC(=O)c1ccc(NC(=O)c2ccc3ccccc3n2)cc1
ASSAY TARGET: S. mutans biofilm
MEASUREMENT UNIT: µM
IC50: 106
--
MOLECULE: NC(=O)c1ccccc1OC(=O)c1ccc2ccccc2c1
ASSAY TARGET: S. mutans biofilm
MEASUREMENT UNIT: µM
IC50: 98.3
--
MOLECULE: NC(=O)c1cccc(NC(=O)c2ccc3ccccc3n2)c1
ASSAY TARGET: S. mutans biofilm
MEASUREMENT UNIT: µM
IC50: 111
--
MOLECULE: CN(C)c1ncc(/C=C/C(=O)Nc2ccccc2C(N)=O)cn1 [SN-I-271S]
ASSAY TARGET: S. mutans biofilm
MEASUREMENT UNIT: µM
IC50: 12.8
--
MOLECULE: NC(=O)c1ccc(NC(=O)c2cc3ccccc3s2)cc1
ASSAY TARGET: S. mutans biofilm
MEASUREMENT UNIT: µM
IC50: 45.6
--
MOLECULE: NC(=O)c1ccc(NC(=O)c2ccc3ccccc3n2)cc1
ASSAY TARGET: S. mutans biofilm
MEASUREMENT UNIT: µM
IC50: 54.4
--
MOLECULE: NC(=O)c1cccc(NC(=O)c2cccc3ccccc23)c1
ASSAY TARGET: S. mutans biofilm
MEASUREMENT UNIT: µM
IC50: 195
--
MOLECULE: CC(C)(C)OC(=O)NCc1ccccc1NC(=O)c1cc2cc([N+](=O)[O-])ccc2s1
ASSAY TARGET: S. mutans biofilm
MEASUREMENT UNIT: µM
IC50: 51.5
--
MOLECULE: COC(=O)c1ccc(NC(=O)c2cnc3ccccc3c2)cc1
ASSAY TARGET: S. mutans biofilm
MEASUREMENT UNIT: µM
IC50: 92.3

Recorded values, source patent US11866416B2.
